Hello, the source for this data is PubChem BioAssay (NCI), in case you need it.

Entries and their growth
Test system: SW-620 colon
PROCEDURE SUMMARY: NCI-60 one-dose screen, 48 h (100 = growth as untreated, 0 = no growth, -100 = all killed)
PROTOCOL CONDITIONS: 10 µM unless noted
Method: Growth inhibition of the SW-620 human tumor cell line is measured as a screen for anti-cancer activity. Cells are grown in 96 well plates and exposed to the test compound for 48 hours. Compounds are tested at a single concentration, which is 10^-5 M for most compounds. The reported endpoint is percent growth (GI% or GIPRCNT), where numbers from 0 - 100% represent growth inhibition, and numbers from -100% - 0 represent cell death. For example, a value of 40 represents 60% growth inhibition. […]
About 83,000 compounds went through this panel and 20% of them were active in at least one assay; those are over-represented in the sample as a whole.
Lab book: enter the figure in %, no units written.

# COMPOUND, SYSTEM UNDER TEST, MEASURED QUANTITY, RECORDED MEASUREMENT
data = [
    ("Cc1nn(-c2nc3ccccc3[nH]2)c2c1C(c1ccc(OCC(N)=O)cc1)CC(=O)N2 (stereo not drawn)", "SW-620 colon", "growth", 88.7),
    ("Cn1nc(C(F)(F)F)c(-c2ccc(Cl)c(C(F)(F)F)c2)c1-c1ccc(OCc2ccc(Cl)cc2)cc1O", "SW-620 colon", "growth", 13.9),
]

// sample CSc1nc2c(c(=O)[nH]1)N=C1c3ccccc3C(=O)C1C(c1ccc(F)cc1)N2 (stereo not drawn) , its growth was 54.5
